# TARGET OF ASSAY: Tyramine receptor (TyrR) (Drosophila melanogaster, UniProt P22270)
# Construct: expressed in transfected cells
# Sequence (P22270 27-601): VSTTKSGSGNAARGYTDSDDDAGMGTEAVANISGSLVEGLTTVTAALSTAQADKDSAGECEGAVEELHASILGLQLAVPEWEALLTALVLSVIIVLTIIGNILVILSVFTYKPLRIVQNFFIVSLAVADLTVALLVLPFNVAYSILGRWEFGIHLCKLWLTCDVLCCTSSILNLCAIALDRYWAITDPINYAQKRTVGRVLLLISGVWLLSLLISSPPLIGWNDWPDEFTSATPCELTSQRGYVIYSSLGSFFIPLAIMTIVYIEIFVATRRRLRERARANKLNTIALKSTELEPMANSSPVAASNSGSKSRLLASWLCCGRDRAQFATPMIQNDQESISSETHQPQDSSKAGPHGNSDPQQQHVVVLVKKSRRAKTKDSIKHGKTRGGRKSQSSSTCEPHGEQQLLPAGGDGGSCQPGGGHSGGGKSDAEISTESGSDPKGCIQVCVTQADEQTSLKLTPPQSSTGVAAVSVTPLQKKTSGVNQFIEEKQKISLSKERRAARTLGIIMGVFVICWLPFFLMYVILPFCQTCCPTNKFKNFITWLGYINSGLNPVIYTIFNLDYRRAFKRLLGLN
# METHOD DESCRIPTION: Effect on intracellular Ca2+ in cells expressing TyrR (Example 14)
# Assay type: cell-based
RESULT TYPE: Effects Intracellular Ca2+ (Yes or No)

Worked examples, 5 compounds total:
Cc1ccc(C(C)C)cc1	Yes
C=C(C)[C@H]1CC=C(C)CC1	Yes
C=CCc1ccc(O)c(OC)c1	Yes
OCC=Cc1ccccc1	Yes
CC1=CCC2CC1C2(C)C (stereo not drawn)	No

Let us examine a further case.
Request: Check the records and state Effects Intracellular Ca2+ (Yes or No) for CCCCCCCCCCCCOS(=O)(=O)[O-].[Na+] [sodium lauryl sulfate]
Result: No
